Measured z-score, listed per entry for reference.
assay: viability profiling in MM1S myeloma cells – cell-based, resazurin fluorescence, basal, 24 h, PK04 Diversity Set, profiling panel (AID 1174); conditions: higher = more signal, called active from +8 up or from −8 down;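 note: MM1S multiple myeloma cell line; test concentration not given here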
Give the figure only, with no unit attached.

compound	z-score
COC(=O)c1c2oc(c1C(=O)OC)C(=O)N[C@H](Cc1ccccc1)Cn1nncc1C1(CCCCC1)NC(=O)N[C@H](CO)CC2	2.4
CC(=O)N1Cc2ccccc2C[C@@]2(N=C(c3ccc(OCCCO)cc3)O[C@H]2c2ccccc2)C1=O	-4.82

For the next question, use this compound.
[ask] Tell us which z-score value is on record for CN1C(=O)C2C=CC(C(O)c3ccc(Br)cc3)N(Nc3ccccc3)C2C1=O (stereo not drawn)
[reply] -0.26
